# Condition details: both, Sprague-Dawley, rat, in vivo
Assay endpoint: C0 (µM)
Write the value in µM as a bare number.

(Q) Dear colleague, please send me the reported C0 for `C[C@H](O)[C@H](O)[C@H]1CNc2nc(N)[nH]c(=O)c2N1` when you can.
(A) 47.2
